System: HeLa Kyoto;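 further: HeLa Kyoto cells synchronized by double thymidine or nocodazole block, proteins quantified by TMT10plex mass spectrometry, three independent biological replicates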
Assay: melting temperature (median over replicates), in situ; higher = more thermally stable
Conditions: cell cycle stage: mitosis
quantity: melting temperature (°C)
Record the value in °C, omitting the unit from your answer.

// worked examples, melting temperature included
| sequence.input | melting temperature / °C |
| --- | --- |
| MEALILEPSLYTVKAILILDNDGDRLFAKYYDDTYPSVKEQKAFEKNIFNKTHRTDSEIALLEGLTVVYKSSIDLYFYVIGSSYENELMLMAVLNCLFDSLSQMLRKNVEKRALLENMEGLFLAVDEIVDGGVILESDPQQVVHRVALRGEDVPLTEQTVSQVLQSAKEQIKWSLLR [COPZ1] | 53.1 |
| MKKVRLKELESRLQQVDGFEKPKLLLEQYPTRPHIAACMLYTIHNTYDDIENKVVADLGCGCGVLSIGTAMLGAGLCVGFDIDEDALEIFNRNAEEFELTNIDMVQCDVCLLSNRMSKSFDTVIMNPPFGTKNNKGTDMAFLKTALEMARTAVYSLHKSSTREHVQKKAAEWKIKIDIIAELRYDLPASYKFHKKKSVDIEVDLIRFSF [METTL5] | 63.4 |
| MDKLKKVLSGQDTEDRSGLSEVVEASSLSWSTRIKGFIACFAIGILCSLLGTVLLWVPRKGLHLFAVFYTFGNIASIGSTIFLMGPVKQLKRMFEPTRLIATIMVLLCFALTLCSAFWWHNKGLALIFCILQSLALTWYSLSFIPFARDAVKKCFAVCLA [SFT2D2] | 61.1 |
| MEADKDDTQQILKEHSPDEFIKDEQNKGLIDEITKKNIQLKKEIQKLETELQEATKEFQIKEDIPETKMKFLSVETPENDSQLSNISCSFQVSSKVPYEIQKGQALITFEKEEVAQNVVSMSKHHVQIKDVNLEVTAKPVPLNSGVRFQVYVEVSKMKINVTEIPDTLREDQMRDKLELSFSKSRNGGGEVDRVDYDRQSGSAVITFVEIGVADKILKKKEYPLYINQTCHRVTVSPYTEIHLKKYQIFSGTSKRTVLLTGMEGIQMDEEIVEDLINIHFQRAKNGGGEVDVVKCSLGQPHIAYFEE [NMI] | 55.7 |
| MLSLRVPLAPITDPQQLQLSPLKGLSLVDKENTPPALSGTRVLASKTARRIFQEPTEPKTKAAAPGVEDEPLLRENPRRFVIFPIEYHDIWQMYKKAEASFWTAEEVDLSKDIQHWESLKPEERYFISHVLAFFAASDGIVNENLVERFSQEVQITEARCFYGFQIAMENIHSEMYSLLIDTYIKDPKEREFLFNAIETMPCVKKKADWALRWIGDKEATYGERVVAFAAVEGIFFSGSFASIFWLKKRGLMPGLTFSNELISRDEGLHCDFACLMFKHLVHKPSEERVREIIINAVRIEQEFLTEALPVKLIGMNCTLMKQYIEFVADRLMLELGFSKVFRVENPFDFMENISLEGKTNFFEKRVGEYQRMGVMSSPTENSFTLDADF [RRM2] | 56.4 |

Qu. Reported melting temperature for MPLPVALQTRLAKRGILKHLEPEPEEEIIAEDYDDDPVDYEATRLEGLPPSWYKVFDPSCGLPYYWNADTDLVSWLSPHDPNSVVTKSAKKLRSSNADAEEKLDRSHDKSDRGHDKSDRSHEKLDRGHDKSDRGHDKSDRDRERGYDKVDRERERDRERDRDRGYDKADREEGKERRHHRREELAPYPKSKKAVSRKDEELDPMDPSSYSDAPRGTWSTGLPKRNEAKTGADTTAAGPLFQQRPYPSPGAVLRANAEASRTKQQD [PQBP1] : what is it?
Ans. 54.6

Qu. Reported melting temperature for MESVSCSAAAVRTGDMESQRDLSLVPERLQRREQERQLEVERRKQKRQNQEVEKENSHFFVATFVRERAAVEELLERAESVERLEEAASRLQGLQKLINDSVFFLAAYDLRQGQEALARLQAALAERRRGLQPKKRFAFKTRGKDAASSTKVDAAPGIPPAVESIQDSPLPKKAEGDLGPSWVCGFSNLESQVLEKRASELHQRDVLLTELSNCTVRLYGNPNTLRLTKAHSCKLLCGPVSTSVFLEDCSDCVLAVACQQLRIHSTKDTRIFLQVTSRAIVEDCSGIQFAPYTWSYPEIDKDFESSGLDRSKNNWNDVDDFNWLARDMASPNWSILPEEERNIQWD [TBCC] : what is it?
Ans. 52.4

Qu. Reported melting temperature for MSRLRALLGLGLLVAGSRVPRIKSQTIACRSGPTWWGPQRLNSGGRWDSEVMASTVVKYLSQEEAQAVDQELFNEYQFSVDQLMELAGLSCATAIAKAYPPTSMSRSPPTVLVICGPGNNGGDGLVCARHLKLFGYEPTIYYPKRPNKPLFTALVTQCQKMDIPFLGEMPAEPMTIDELYELVVDAIFGFSFKGDVREPFHSILSVLKGLTVPIASIDIPSGWDVEKGNAGGIQPDLLISLTAPKKSATQFTGRYHYLGGRFVPPALEKKYQLNLPPYPDTECVYRLQ [APOA1BP] : what is it?
Ans. 55.3

Qu. Reported melting temperature for MAKAYDHLFKLLLIGDSGVGKTCLIIRFAEDNFNNTYISTIGIDFKIRTVDIEGKKIKLQVWDTAGQERFKTITTAYYRGAMGIILVYDITDEKSFENIQNWMKSIKENASAGVERLLLGNKCDMEAKRKVQKEQADKLAREHGIRFFETSAKSSMNVDEAFSSLARDILLKSGGRRSGNGNKPPSTDLKTCDKKNTNKCSLG [RAB13] : what is it?
Ans. 53

Qu. Reported melting temperature for MDDTLFQLKFTAKQLEKLAKKAEKDSKAEQAKVKKALLQKNVECARVYAENAIRKKNEGVNWLRMASRVDAVASKVQTAVTMKGVTKNMAQVTKALDKALSTMDLQKVSSVMDRFEQQVQNLDVHTSVMEDSMSSATTLTTPQEQVDSLIMQIAEENGLEVLDQLSQLPEGASAVGESSVRSQEDQLSRRLAALRN [CHMP1A] : what is it?
Ans. 53.9

Qu. Reported melting temperature for MSGEENPASKPTPVQDVQGDGRWMSLHHRFVADSKDKEPEVVFIGDSLVQLMHQCEIWRELFSPLHALNFGIGGDGTQHVLWRLENGELEHIRPKIVVVWVGTNNHGHTAEQVTGGIKAIVQLVNERQPQARVVVLGLLPRGQHPNPLREKNRQVNELVRAALAGHPRAHFLDADPGFVHSDGTISHHDMYDYLHLSRLGYTPVCRALHSLLLRLLAQDQGQGAPLLEPAP [PAFAH1B3] : what is it?
Ans. 51
